- target: KATP channels (Homo sapiens, UniProt O60706+Q14654)
- Construct: TE671 human medulloblastoma cells were obtained from ATCC
- Sequence (Q14654 whole entry): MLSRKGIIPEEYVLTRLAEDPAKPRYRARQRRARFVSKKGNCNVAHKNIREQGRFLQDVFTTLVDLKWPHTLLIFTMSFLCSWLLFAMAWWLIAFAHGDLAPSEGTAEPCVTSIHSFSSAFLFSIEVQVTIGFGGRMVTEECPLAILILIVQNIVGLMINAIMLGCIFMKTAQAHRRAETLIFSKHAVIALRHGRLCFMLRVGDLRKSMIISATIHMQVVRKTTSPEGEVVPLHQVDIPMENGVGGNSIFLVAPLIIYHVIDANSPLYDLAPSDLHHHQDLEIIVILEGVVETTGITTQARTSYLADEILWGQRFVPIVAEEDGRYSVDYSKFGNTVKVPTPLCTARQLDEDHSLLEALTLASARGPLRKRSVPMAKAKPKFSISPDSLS
- Sequence (O60706 1-1549 isoform O60706-2): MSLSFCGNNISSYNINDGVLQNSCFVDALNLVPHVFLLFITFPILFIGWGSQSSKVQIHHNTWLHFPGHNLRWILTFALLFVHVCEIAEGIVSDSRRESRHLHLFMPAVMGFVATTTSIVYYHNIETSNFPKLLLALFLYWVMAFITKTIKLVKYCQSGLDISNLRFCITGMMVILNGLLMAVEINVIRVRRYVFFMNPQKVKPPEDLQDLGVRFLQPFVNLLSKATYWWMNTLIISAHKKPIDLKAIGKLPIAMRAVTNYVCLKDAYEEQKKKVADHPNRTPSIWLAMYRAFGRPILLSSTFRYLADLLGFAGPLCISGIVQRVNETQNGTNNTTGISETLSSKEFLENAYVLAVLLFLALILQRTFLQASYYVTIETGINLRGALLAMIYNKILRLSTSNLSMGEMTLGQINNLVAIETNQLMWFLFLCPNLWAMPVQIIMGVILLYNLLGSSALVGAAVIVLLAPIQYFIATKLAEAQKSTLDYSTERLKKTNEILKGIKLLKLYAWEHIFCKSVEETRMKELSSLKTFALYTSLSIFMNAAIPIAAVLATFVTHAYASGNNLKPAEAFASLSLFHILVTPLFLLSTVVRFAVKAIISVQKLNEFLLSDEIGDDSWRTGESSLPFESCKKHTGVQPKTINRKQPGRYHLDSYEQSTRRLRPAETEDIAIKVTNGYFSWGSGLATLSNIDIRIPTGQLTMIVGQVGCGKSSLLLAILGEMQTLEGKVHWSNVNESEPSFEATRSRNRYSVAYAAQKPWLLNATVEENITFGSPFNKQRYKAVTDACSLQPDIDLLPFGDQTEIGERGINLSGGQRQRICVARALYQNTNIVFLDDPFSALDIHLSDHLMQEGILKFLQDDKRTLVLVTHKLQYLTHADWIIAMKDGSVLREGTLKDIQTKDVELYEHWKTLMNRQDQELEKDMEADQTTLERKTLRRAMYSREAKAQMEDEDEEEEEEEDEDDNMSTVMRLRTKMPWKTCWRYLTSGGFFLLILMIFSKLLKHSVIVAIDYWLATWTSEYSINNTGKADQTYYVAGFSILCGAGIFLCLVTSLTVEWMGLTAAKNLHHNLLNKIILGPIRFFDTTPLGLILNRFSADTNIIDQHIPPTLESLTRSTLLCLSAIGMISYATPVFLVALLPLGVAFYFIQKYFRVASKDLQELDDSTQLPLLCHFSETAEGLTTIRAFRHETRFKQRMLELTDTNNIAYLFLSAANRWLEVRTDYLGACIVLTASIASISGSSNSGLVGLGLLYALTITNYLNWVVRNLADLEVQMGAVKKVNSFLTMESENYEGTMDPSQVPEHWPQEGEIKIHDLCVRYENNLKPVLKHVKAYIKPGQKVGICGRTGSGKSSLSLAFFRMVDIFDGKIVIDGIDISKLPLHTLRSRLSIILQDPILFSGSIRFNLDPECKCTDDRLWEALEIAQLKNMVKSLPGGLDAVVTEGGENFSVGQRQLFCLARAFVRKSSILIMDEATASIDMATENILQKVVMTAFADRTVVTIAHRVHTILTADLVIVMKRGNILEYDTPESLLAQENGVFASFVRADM
- measurement-description: Potassium Channel Assay (FLIPR membrane potential dye, TE671 cells)
- condition-context: TE671 human medulloblastoma cells, room temperature, fluorescence change monitored for 3 minutes
quantity-measured: EC50 (µM)
Entry rule: numbers only, all in µM.

Recorded EC50, per entry:
molecule: CC(O)c1cnccc1-c1cccc(C#N)c1 (stereo not shown) [Compound 52]
EC50, µM: 17.2
//
molecule: CC(C)C(O)c1cnccc1Br (stereo not shown) [Compound 63]
EC50, µM: 7.97
//
molecule: CC(O)c1cnccc1C(=O)c1ccccc1 (stereo not shown) [Compound 59]
EC50, µM: 26.8
//
molecule: CCOC(=O)c1cnc2cc(C(F)(F)F)ccc2c1-c1cc(CO)ccc1OC [Compound 14]
EC50, µM: 4.56
//
molecule: N#Cc1cccc(-c2ccncc2C(O)C(F)(F)F)c1 (stereo not shown) [Compound 39]
EC50, µM: 10.5

Task: Answer with the recorded EC50 for the molecule listed here: O=C(c1ccccc1)c1ccncc1C(O)c1cccc(F)c1 (stereo not shown) [Compound 47]
Output: 5.09

Task: Answer with the recorded EC50 for the molecule listed here: N#Cc1cccc(-c2ccncc2C(O)c2ccc(Cl)cc2)c1 (stereo not shown) [Compound 26]
Output: 10.2

Task: Answer with the recorded EC50 for the molecule listed here: N#Cc1cccc(-c2ccncc2C(O)c2cccc(F)c2)c1 (stereo not shown) [Compound 21]
Output: 23.2

Task: Answer with the recorded EC50 for the molecule listed here: N#Cc1cccc(-c2ccncc2C(O)c2ccccc2)c1 (stereo not shown) [Compound 19]
Output: 9.63

Task: Answer with the recorded EC50 for the molecule listed here: CCOC(=O)c1cnc2cc(C(F)(F)F)ccc2c1OS(=O)(=O)C(F)(F)F [Compound 15]
Output: 6.27

Task: Answer with the recorded EC50 for the molecule listed here: COc1ccccc1C(O)c1cnccc1-c1cccc(C#N)c1 (stereo not shown) [Compound 28]
Output: 10.2
